- tested_on: HIV-1 Env of ZM233.6 (HIV-1)
- experiment_description: cell-based or functional assay
reported_endpoint: neutralization IC50 (µg/mL)
Give the value, in units of µg/mL, as a plain number.

The measured neutralization IC50 associated with CAP256-VRC26.10 (antibody, V domains shown) VH: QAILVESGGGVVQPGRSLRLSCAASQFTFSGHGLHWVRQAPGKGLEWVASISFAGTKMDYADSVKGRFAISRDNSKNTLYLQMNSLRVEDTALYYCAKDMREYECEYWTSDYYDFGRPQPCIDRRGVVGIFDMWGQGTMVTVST VL: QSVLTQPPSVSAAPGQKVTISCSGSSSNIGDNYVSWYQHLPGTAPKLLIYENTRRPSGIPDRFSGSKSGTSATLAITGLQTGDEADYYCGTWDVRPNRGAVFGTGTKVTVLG reads 0.228
